Entries annotated with measured pEC50
- Test system: SARS-CoV-2 (USA_WA1/2020)
- Measurement Description: Antiviral Activity from SARS-CoV-2 Infection (cytopathic effect, Cell Titer-Glo)
- Format: cell-based
- Measurement Setup: Severe acute respiratory syndrome coronavirus 2, Vero C1008, 72 h, VeroE6 cells enriched for hACE2, MOI 0.002, 3-day incubation; tested alone or with P-gp inhibitor CP-100356 2 μM (table does not say which); read-out: Geometric Mean EC50
Hey, just a heads up that pEC50 is the negative log base 10 of the concentration in molar.

Please review the following examples before continuing.
Can you look up the measured pEC50 of CC(C)[C@H](NC(=O)C(F)(F)F)C(=O)N1CC[C@@H](C)C[C@H]1C(=O)N[C@@H](C[C@@H]1CCNC1=O)C(=O)COc1ccc(F)cc1F (relative stereo) for me?
6.25

Also check CC(C)(C)[C@H](NC(=O)C(F)(F)F)C(=O)N1C[C@H]2[C@@H]([C@H]1C(=O)N[C@@H](C[C@@H]1CCNC1=O)C(=O)COc1cccc(C(F)(F)F)c1)C2(C)C
7.29

Also check CC(C)[C@H](NC(=O)C(F)(F)F)C(=O)N1C[C@H]2[C@@H]([C@H]1C(=O)N[C@H](C[C@@H]1CCNC1=O)C(=O)COc1ccc(F)cc1F)C2(C)C
7.13

Also check CCc1cc(OCC(=O)[C@H](C[C@@H]2CCNC2=O)NC(=O)[C@@H]2[C@@H]3[C@H](CN2C(=O)[C@@H](NC(=O)OC)C(C)(C)C)C3(C)C)n(C)n1
6.05

// switching to the query compound
Can you look up the measured pEC50 of CC(C)[C@H](NS(=O)(=O)C(F)(F)F)C(=O)N1C[C@H]2[C@@H]([C@H]1C(=O)N[C@@H](C[C@@H]1CC(=O)NC1=O)C(=O)COc1ccc(F)cc1F)C2(C)C for me?
5.70
